These entries and their values trace back to ChEMBL document CHEMBL1123979.

- System: Rattus norvegicus
- measurement-notes: Plasma concentration 1 hr after oral administration of a dose of 200 uM/kg
- Type: functional, organism-based
test-readout: log10 of Concentration (log10 of the value in µM)

>>> print(df.to_string())
                                   compound            test_readout   val
0  CC(=O)N(O)C(C)c1ccc(OCc2ccccc2)cc1 (stereo in doubt; 5)  log10 of Concentration  1.85
1  CC(=O)N(O)C(C)c1ccc(OC(C)c2ccccc2)cc1 (stereo not given)  log10 of Concentration  2.03
2  CC(=O)N(O)C(C)c1ccc(OCc2ccncc2)cc1 (stereo not given)  log10 of Concentration  2.18
3           CC(=O)N(O)Cc1ccc(OCc2ccccc2)cc1  log10 of Concentration  0.32
4  CC(=O)N(O)C(C)c1ccc(OC(c2ccccc2)C(C)C)cc1 (stereo not given)  log10 of Concentration  1.03
5  CC(c1ccc(OCc2ccccc2)cc1)N(O)C=O (stereo not given)  log10 of Concentration  0.36
6  CCCCOc1ccc(C(C)N(O)C(C)=O)cc1 (stereo not given)  log10 of Concentration  1.82
7  CC(=O)N(O)C(C)c1ccc(Oc2ccccc2)cc1 (stereo not given)  log10 of Concentration  1.72
